system tested: T1, orthogonal hCD122 receptor (hoRb), hCD122 with H133D and Y134F (human, UniProt P14784 27-550); note: reference of the scale not given here
T1 sequence: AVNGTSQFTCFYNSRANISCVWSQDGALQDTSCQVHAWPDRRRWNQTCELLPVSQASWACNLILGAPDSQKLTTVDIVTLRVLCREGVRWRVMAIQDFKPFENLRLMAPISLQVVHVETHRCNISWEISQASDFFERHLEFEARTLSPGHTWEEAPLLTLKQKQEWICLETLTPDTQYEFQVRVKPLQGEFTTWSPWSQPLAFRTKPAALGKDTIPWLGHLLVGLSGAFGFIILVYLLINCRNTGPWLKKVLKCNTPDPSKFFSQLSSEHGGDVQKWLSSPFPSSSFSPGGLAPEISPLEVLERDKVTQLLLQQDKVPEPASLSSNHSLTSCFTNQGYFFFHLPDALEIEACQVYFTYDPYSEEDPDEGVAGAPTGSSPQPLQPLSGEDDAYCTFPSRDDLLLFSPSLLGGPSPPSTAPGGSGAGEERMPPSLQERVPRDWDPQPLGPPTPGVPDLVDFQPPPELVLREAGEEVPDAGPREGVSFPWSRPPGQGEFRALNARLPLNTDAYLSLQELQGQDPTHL
assay remarks: cell-based or functional assay
measurement name: Relative Proliferation Fold Change 3F8 1:50 (fold)

binder="L18K, SQVLKA (ligand) APTSSSTKKTQLQLSQLKVLLKAILNGINNYKNPKLTRMLTFKFYMPKKATELKHLQCLEEELKPLEEVLNLAQSKNFHLRPRDLISNINVIVLELKGSETTFMCEYADETATIVEFLNRWITFCQSIISTLT" units_symbol=fold reported_measurement=14.6

P. H55Y, SQVLKA (ligand) APTSSSTKKTQLQLSQLLVLLKAILNGINNYKNPKLTRMLTFKFYMPKKATELKYLQCLEEELKPLEEVLNLAQSKNFHLRPRDLISNINVIVLELKGSETTFMCEYADETATIVEFLNRWITFCQSIISTLT
Q. Q126T, SQVLKA (ligand) APTSSSTKKTQLQLSQLLVLLKAILNGINNYKNPKLTRMLTFKFYMPKKATELKHLQCLEEELKPLEEVLNLAQSKNFHLRPRDLISNINVIVLELKGSETTFMCEYADETATIVEFLNRWITFCTSIISTLT
(Q) Hi! Which is lower in terms of Relative Proliferation Fold Change 3F8 1:50, the first one P or the second one Q ? State the label of the item chosen.
(A) Q
(Q: 1.92 fold, P: 16.7 fold)
